# kon per record follows
Molecular target: T1, mfNPR1-mFc:hBNP complex (monkey; human, UniProt P16860 103-134)
T1 construct: Receptor-Fc pre-complexed with 10-fold hBNP
Assay: SPR Biacore, mAb captured by anti-human Fc, 37C
quantity-name: kon (M⁻¹ s⁻¹)

binder	quantity-name	obs-value
mAb22809 (antibody, human IgG4, V domains shown) VH: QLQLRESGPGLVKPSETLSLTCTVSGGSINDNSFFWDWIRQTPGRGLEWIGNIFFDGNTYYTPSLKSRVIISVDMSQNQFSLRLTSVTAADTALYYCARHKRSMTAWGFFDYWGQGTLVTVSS VL: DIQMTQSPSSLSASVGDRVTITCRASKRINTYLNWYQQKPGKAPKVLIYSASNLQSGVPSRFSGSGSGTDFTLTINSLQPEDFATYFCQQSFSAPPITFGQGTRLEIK	kon	53400
mAb22033 (antibody, human IgG4, V domains shown) VH: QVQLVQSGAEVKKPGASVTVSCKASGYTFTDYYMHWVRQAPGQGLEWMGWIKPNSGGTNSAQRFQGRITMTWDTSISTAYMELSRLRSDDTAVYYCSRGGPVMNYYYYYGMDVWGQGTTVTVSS VL: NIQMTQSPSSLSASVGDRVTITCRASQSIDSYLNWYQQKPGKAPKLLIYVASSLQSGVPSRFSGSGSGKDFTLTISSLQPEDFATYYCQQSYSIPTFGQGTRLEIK	kon	67500
mAb25491 (antibody, human IgG4, V domains shown) VH: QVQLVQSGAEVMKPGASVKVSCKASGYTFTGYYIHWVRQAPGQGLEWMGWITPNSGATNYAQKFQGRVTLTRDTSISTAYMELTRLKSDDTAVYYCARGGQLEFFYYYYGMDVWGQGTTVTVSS VL: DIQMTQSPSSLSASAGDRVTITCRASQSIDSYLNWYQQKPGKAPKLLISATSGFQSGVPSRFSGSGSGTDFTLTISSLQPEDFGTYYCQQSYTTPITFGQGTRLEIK	kon	68900
mAb25502 (antibody, human IgG4, V domains shown) VH: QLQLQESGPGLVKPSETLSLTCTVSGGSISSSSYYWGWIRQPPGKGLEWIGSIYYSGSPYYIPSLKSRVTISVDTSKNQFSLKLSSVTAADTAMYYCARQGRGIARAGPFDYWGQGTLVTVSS VL: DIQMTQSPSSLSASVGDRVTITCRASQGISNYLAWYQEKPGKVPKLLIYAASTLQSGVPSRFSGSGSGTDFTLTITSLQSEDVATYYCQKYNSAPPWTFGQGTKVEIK	kon	85200
mAb22805 (antibody, human IgG4, V domains shown) VH: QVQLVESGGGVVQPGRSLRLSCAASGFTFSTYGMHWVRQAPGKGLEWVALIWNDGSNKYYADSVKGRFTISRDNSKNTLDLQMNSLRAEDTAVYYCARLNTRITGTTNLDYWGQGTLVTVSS VL: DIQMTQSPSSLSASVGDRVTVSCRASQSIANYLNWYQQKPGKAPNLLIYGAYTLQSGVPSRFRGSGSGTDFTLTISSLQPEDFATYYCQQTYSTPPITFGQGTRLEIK	kon	59600
